# systemUnderTest: 5-HT6 (Homo sapiens, UniProt P50406)
# Sequence (P50406 whole entry, species assumed): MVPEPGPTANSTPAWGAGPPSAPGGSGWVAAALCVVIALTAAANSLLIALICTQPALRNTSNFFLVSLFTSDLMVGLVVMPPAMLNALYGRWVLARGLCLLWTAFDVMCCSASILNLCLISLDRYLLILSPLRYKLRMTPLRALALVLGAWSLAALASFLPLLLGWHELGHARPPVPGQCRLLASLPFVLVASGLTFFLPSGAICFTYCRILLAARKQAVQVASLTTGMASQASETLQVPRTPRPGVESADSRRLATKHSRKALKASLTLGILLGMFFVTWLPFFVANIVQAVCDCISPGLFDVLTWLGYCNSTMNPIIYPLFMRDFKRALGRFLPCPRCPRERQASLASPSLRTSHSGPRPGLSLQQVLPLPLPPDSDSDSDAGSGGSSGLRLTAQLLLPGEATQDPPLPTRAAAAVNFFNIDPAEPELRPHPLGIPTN
# test: Receptor selectivity binding, 5-HT6
# runConditions: Table 3
Please provide measured IC50 for the entries that follow.

Look over these answered cases.
[[record]]
molecule = "O=C(Nc1ccc(Oc2cccnc2Cl)nc1)c1c[nH]c2ccccc12"
systemundertest = "5-HT6 (Homo sapiens, UniProt P50406)"
observed = "> 10 µM"

[[record]]
molecule = "Cc1ccc2c(C(=O)Nc3ccc(Oc4cccnc4C)nc3)c[nH]c2c1"
systemundertest = "5-HT6 (Homo sapiens, UniProt P50406)"
observed = "> 10 µM"

[[record]]
molecule = "Cc1ncccc1Oc1ccc(NC(=O)c2c[nH]c3c(C)cccc23)cn1"
systemundertest = "5-HT6 (Homo sapiens, UniProt P50406)"
observed = "> 10 µM"

[[record]]
molecule = "Cc1cc2c(cc1C(F)(F)F)N(C(=O)Nc1ccc(Oc3cccnc3C)nc1)CC2 [Comparative Example 1, SB-243213, reference compound]"
systemundertest = "5-HT6 (Homo sapiens, UniProt P50406)"
observed = "0.667 µM"

[[record]]
molecule = "Cc1ccc2[nH]cc(C(=O)Nc3ccc(Oc4cccnc4C)nc3)c2c1"
systemundertest = "5-HT6 (Homo sapiens, UniProt P50406)"
observed = "> 10 µM"


Hello, I would appreciate it if you could give IC50 for each entry below.
1. COc1ccc2[nH]cc(C(=O)Nc3ccc(Oc4cccnc4C)nc3)c2c1
2. O=C(Nc1ccc(OCc2ccccn2)nc1)c1c[nH]c2ccccc12

## Result
> 10 µM
> 1 µM

====

quantityName: melting point

[[record]]
compound = "Cc1cc2c(cc1C(F)(F)F)N(C(=O)Nc1ccc(OCc3ccccn3)nc1)CC2 [Comparative Example 2, SB-247853]"
quantityname = "melting point"
observed = "220 to 222 °C"

[[record]]
compound = "Cc1ncccc1Oc1ccc(NC(=O)c2c[nH]c3ccccc23)cn1 [Example 6]"
quantityname = "melting point"
observed = "108 to 110 °C"

[[record]]
compound = "Cc1ncccc1Oc1ccc(NS(=O)(=O)c2csc3ccccc23)cn1 [Example 2]"
quantityname = "melting point"
observed = "93 to 95 °C"

[[record]]
compound = "Cc1ncccc1Oc1ccc(NC(=O)c2nc3ccccc3[nH]2)cn1 [Example 7]"
quantityname = "melting point"
observed = "191 to 193 °C"

[[record]]
compound = "Cc1ncccc1Oc1ccc(NC(=O)c2ccc3ccccc3c2)cn1 [Example 8]"
quantityname = "melting point"
observed = "156 to 158 °C"


Hello, I would appreciate it if you could give melting point for each entry below.
1. Cc1ncccc1Oc1ccc(NS(=O)(=O)c2coc3ccccc23)cn1 [Example 1]
2. Cc1ncccc1Oc1ccc(NC(=O)c2csc3ccccc23)cn1 [Example 4]
3. Cc1ncccc1Oc1ccc(NC(=O)c2coc3ccccc23)cn1 [Example 3]

## Result
1: 128 to 129 °C; 2: 81 to 83 °C; 3: 52 to 55 °C

====

# systemUnderTest: human gene recombinant 5-HT2c receptor expressed in CHO-K1 cell (Homo sapiens, UniProt P28335)
# Construct: purchased Euroscreen, Belgium; host or cells: CHO-K1
# Sequence (P28335 33-458): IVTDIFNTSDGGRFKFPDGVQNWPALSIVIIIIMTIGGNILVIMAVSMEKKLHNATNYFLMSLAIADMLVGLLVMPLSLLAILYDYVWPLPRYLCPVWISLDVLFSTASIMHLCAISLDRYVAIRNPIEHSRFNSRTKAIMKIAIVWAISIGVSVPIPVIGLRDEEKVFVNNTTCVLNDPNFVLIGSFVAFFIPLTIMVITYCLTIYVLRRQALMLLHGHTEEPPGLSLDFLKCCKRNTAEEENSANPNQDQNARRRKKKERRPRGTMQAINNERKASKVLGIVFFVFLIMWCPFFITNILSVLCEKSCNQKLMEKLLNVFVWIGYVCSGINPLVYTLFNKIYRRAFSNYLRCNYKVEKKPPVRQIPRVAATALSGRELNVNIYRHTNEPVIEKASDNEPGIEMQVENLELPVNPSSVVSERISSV
# test: Binding affinity to the serotonin 5-HT2c receptor ([3H]mesulergine)
# runConditions: [3H]mesulergine 1 nM, 37° C. 30 minutes; Table 2; read-out: IC50
Please provide measured pIC50 for the entries that follow.
Give bare numbers, as −log10 of the molar value.

Look over these answered cases.
[[record]]
compound = "O=C(Nc1ccc(Oc2ccccc2)nc1)c1c[nH]c2ccccc12"
observed = 6.27

[[record]]
compound = "O=C(Nc1ccc(Oc2cccnc2Br)nc1)c1c[nH]c2ccccc12"
observed = 6.97

[[record]]
compound = "Cc1ncccc1Oc1ccc(NC(=O)c2csc3ccccc23)cn1"
observed = 7.30

[[record]]
compound = "O=C(Nc1ccc(OCc2ccccn2)nc1)c1c[nH]c2ccccc12"
observed = 8.23

[[record]]
compound = "Cc1ccc2c(C(=O)Nc3ccc(Oc4cccnc4Cl)nc3)c[nH]c2c1"
observed = 8.15


Hello, I would appreciate it if you could give pIC50 for each entry below.
1. Cc1ncccc1Oc1ccc(NS(=O)(=O)c2csc3ccccc23)cn1
2. Cc1ccc2c(C(=O)Nc3ccc(Oc4cccnc4C)nc3)c[nH]c2c1
3. O=C(Nc1ccc(Oc2cccnc2Cl)nc1)c1c[nH]c2ccccc12

## Result
[6.24, 8.72, 9.30]

Hello, I would appreciate it if you could give pIC50 for each entry below.
1. Cc1cc2c(cc1C(F)(F)F)N(C(=O)Nc1ccc(Oc3cccnc3C)nc1)CC2 [Comparative Example 1, SB-243213, reference compound]
2. Cc1ncccc1Oc1ccc(N(C)C(=O)c2c[nH]c3ccccc23)cn1
3. Cc1ncccc1Oc1ccc(NC(=O)c2coc3ccccc23)cn1

## Result
1: 9.15; 2: 5.02; 3: 6.78

Hello, I would appreciate it if you could give pIC50 for each entry below.
1. Cc1ncccc1Oc1ccc(N(C)C(=O)c2cn(C)c3ccccc23)cn1
2. Cc1ncccc1Oc1ccc(NS(=O)(=O)c2coc3ccccc23)cn1
3. Cc1ccc(Oc2ccc(NC(=O)c3c[nH]c4ccccc34)cn2)cn1
4. Cc1ncccc1Oc1ccc(NC(=S)c2c[nH]c3ccccc23)cn1
5. Cc1ccc2[nH]cc(C(=O)Nc3ccc(Oc4cccnc4C)nc3)c2c1
6. Cc1cc2c(cc1C(F)(F)F)N(C(=O)Nc1ccc(OCc3ccccn3)nc1)CC2

## Result
[5.20, 6.49, 5.65, 7.64, 8.35, 8.89]
